Record form. Attribute: binding signal. Fill in for each entry.
- testTarget: d-enCas12a-Ultra (Acidaminococcus sp., UniProt U2UMQ6 1-1307, E174R;S542R;K548R;M537R;F870L;D908A;E993A;D1235A)
- protocol: Spec-seq (native PAGE EMSA with sequencing of bound and unbound); 25 mM Tris-HCl pH 7.4, 150 mM KCl, 5 mM MgCl2, 10% glycerol, 1 mM DTT, 40 ng/uL salmon sperm DNA; 400 nM Cas12a, 480 nM crRNA, 50 nM library, 37 C 1 h; native PAGE at room temperature; high values mean tight binding;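 also: relative affinity from the bound to unbound sequence frequency ratio in Spec-seq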
- reportedConditions: protein: recombinant
Answers are plain numbers, in lnKA.

Known results for binders:
- binder: "AAAA (dsDNA) DNA 1: GCTATCTAGTGCTCAGTACGCACTGAAAAAGGAAACTTCTGGCAGGACCAGGTCATGAGATCGGAAGAGCACACGTCTGAACTCCAGTCA DNA 2: TGACTGGAGTTCAGACGTGTGCTCTTCCGATCTCATGACCTGGTCCTGCCAGAAGTTTCCTTTTTCAGTGCGTACTGAGCACTAGATAGC RNA: AAUUUCUACUCUUGUAGAUAGGAAACUUCUGGCAGGACC"
  unitDescriptor: "lnKA"
  binding signal: -3.17
- binder: "TTTG (dsDNA) DNA 1: GCTATCTAGTGCTCAGTACGCACTGTTTGAGGAAACTTCTGGCAGGACCAGGTCATGAGATCGGAAGAGCACACGTCTGAACTCCAGTCA DNA 2: TGACTGGAGTTCAGACGTGTGCTCTTCCGATCTCATGACCTGGTCCTGCCAGAAGTTTCCTCAAACAGTGCGTACTGAGCACTAGATAGC RNA: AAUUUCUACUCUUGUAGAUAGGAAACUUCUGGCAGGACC"
  unitDescriptor: "lnKA"
  binding signal: -0.067
- binder: "CATC (dsDNA) DNA 1: GCTATCTAGTGCTCAGTACGCACTGCATCAGGAAACTTCTGGCAGGACCAGGTCATGAGATCGGAAGAGCACACGTCTGAACTCCAGTCA DNA 2: TGACTGGAGTTCAGACGTGTGCTCTTCCGATCTCATGACCTGGTCCTGCCAGAAGTTTCCTGATGCAGTGCGTACTGAGCACTAGATAGC RNA: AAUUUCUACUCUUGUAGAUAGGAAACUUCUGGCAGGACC"
  unitDescriptor: "lnKA"
  binding signal: -1.16
- binder: "CACC (dsDNA) DNA 1: GCTATCTAGTGCTCAGTACGCACTGCACCAGGAAACTTCTGGCAGGACCAGGTCATGAGATCGGAAGAGCACACGTCTGAACTCCAGTCA DNA 2: TGACTGGAGTTCAGACGTGTGCTCTTCCGATCTCATGACCTGGTCCTGCCAGAAGTTTCCTGGTGCAGTGCGTACTGAGCACTAGATAGC RNA: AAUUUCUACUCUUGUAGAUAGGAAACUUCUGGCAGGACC"
  unitDescriptor: "lnKA"
  binding signal: -0.454
- binder: "TCAA (dsDNA) DNA 1: GCTATCTAGTGCTCAGTACGCACTGTCAAAGGAAACTTCTGGCAGGACCAGGTCATGAGATCGGAAGAGCACACGTCTGAACTCCAGTCA DNA 2: TGACTGGAGTTCAGACGTGTGCTCTTCCGATCTCATGACCTGGTCCTGCCAGAAGTTTCCTTTGACAGTGCGTACTGAGCACTAGATAGC RNA: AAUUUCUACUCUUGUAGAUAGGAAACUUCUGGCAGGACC"
  unitDescriptor: "lnKA"
  binding signal: -3.39

Hello, I would appreciate it if you could give binding signal for each entry below.
1. ACGT (dsDNA) DNA 1: GCTATCTAGTGCTCAGTACGCACTGACGTAGGAAACTTCTGGCAGGACCAGGTCATGAGATCGGAAGAGCACACGTCTGAACTCCAGTCA DNA 2: TGACTGGAGTTCAGACGTGTGCTCTTCCGATCTCATGACCTGGTCCTGCCAGAAGTTTCCTACGTCAGTGCGTACTGAGCACTAGATAGC RNA: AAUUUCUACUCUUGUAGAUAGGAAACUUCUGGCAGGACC
2. CCCT (dsDNA) DNA 1: GCTATCTAGTGCTCAGTACGCACTGCCCTAGGAAACTTCTGGCAGGACCAGGTCATGAGATCGGAAGAGCACACGTCTGAACTCCAGTCA DNA 2: TGACTGGAGTTCAGACGTGTGCTCTTCCGATCTCATGACCTGGTCCTGCCAGAAGTTTCCTAGGGCAGTGCGTACTGAGCACTAGATAGC RNA: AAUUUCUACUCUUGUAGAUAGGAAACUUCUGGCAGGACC
3. GGAT (dsDNA) DNA 1: GCTATCTAGTGCTCAGTACGCACTGGGATAGGAAACTTCTGGCAGGACCAGGTCATGAGATCGGAAGAGCACACGTCTGAACTCCAGTCA DNA 2: TGACTGGAGTTCAGACGTGTGCTCTTCCGATCTCATGACCTGGTCCTGCCAGAAGTTTCCTATCCCAGTGCGTACTGAGCACTAGATAGC RNA: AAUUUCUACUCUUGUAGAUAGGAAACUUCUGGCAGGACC
4. GGCG (dsDNA) DNA 1: GCTATCTAGTGCTCAGTACGCACTGGGCGAGGAAACTTCTGGCAGGACCAGGTCATGAGATCGGAAGAGCACACGTCTGAACTCCAGTCA DNA 2: TGACTGGAGTTCAGACGTGTGCTCTTCCGATCTCATGACCTGGTCCTGCCAGAAGTTTCCTCGCCCAGTGCGTACTGAGCACTAGATAGC RNA: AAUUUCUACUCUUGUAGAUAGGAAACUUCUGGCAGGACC

Result:
1. -3.49
2. -1.7
3. -3.45
4. -2.64

Ask: Given ATTG (dsDNA) DNA 1: GCTATCTAGTGCTCAGTACGCACTGATTGAGGAAACTTCTGGCAGGACCAGGTCATGAGATCGGAAGAGCACACGTCTGAACTCCAGTCA DNA 2: TGACTGGAGTTCAGACGTGTGCTCTTCCGATCTCATGACCTGGTCCTGCCAGAAGTTTCCTCAATCAGTGCGTACTGAGCACTAGATAGC RNA: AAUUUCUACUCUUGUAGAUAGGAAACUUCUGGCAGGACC , respond with its binding signal.
Result: -0.339
